tgt: T1, mouse TfR ectodomain fused to a mouse IgG1 Fc fragment (mouse, UniProt Q62351 89-763)
T1 construct: extracellular domain; not shown: mouse IgG1 Fc fragment
procedureDetails: SPR, at equilibrium
pKd: −log10 of the molar value.
valueType: pKd

>>> observedmeasurement("C5^V29 (VHH) VHH: EVQLVESGGGVVQPGGSLKLSCVASGADFSINFIRWYRQAPGKQREFVAGFTATGHTNYADSMKGRFTISRDNTKNAVYLQIDSLKPEDTAVYYCYMLDKWGQGTQVTVSS")
6.62
>>> observedmeasurement("VHH A11 (C5^V11) (VHH) VHH: EVQLVESGGGVVQPGGSLKLSCVASGTDFSINYIRWYRQAPGKQREFVAGFTATGNTNYADSMKGRFTISRDNTKNAVYLQIDSLKPEDTAVYYCYMLDKWGQGTQVTVSS")
7.13
>>> observedmeasurement("VHH A2 (C5^V2) (VHH) VHH: EVQLVESGGGVVQPGGSLKLSCVASGTAFSINFIRWYRQAPGKQREFVAGFTATGNTNYADSMKGRFTISRDNTKNAVYLQIDSLKPEDTAVYYCYMLDKWGQGTQVTVSS")
6.97
>>> observedmeasurement("VHH A1 (C5^V1) (VHH) VHH: EVQLVESGGGVVQPGGSLKLSCVASGADFSINFIRWYRQAPGKQREFVAGFTATGNTNYADSMKGRFTISRDNTKNAVYLQIDSLKPEDTAVYYCYMLDKWGQGTQVTVSS")
6.64
>>> observedmeasurement("C5^V27 (VHH) VHH: EVQLVESGGGVVQPGGSLKLSCVASGADFSINYIRWYRQAPGKQREFVAGFTATGNTNYADSMKGRFTISRDNTKNAVYLQIDSLKPEDTAVYYCYMLDKWGQGTQVTVSS")
6.42
